Target: Tumor necrosis factor receptor superfamily member 10B (Homo sapiens)
Assay remarks: caspase-8 TRAIL sensitization, hit retest, confirmation, cell-based, NB7+caspase-8, with/without TRAIL, luminescence panel (AID 651596)
Condition set: NB7 neuroblastoma + caspase-8, TRAIL sensitization, luminescence viability, with TRAIL, mean of runs, at 10 µM, stronger effect = higher value
Entries whose activity is below 90% take satisfied; entries at or above 90% take not satisfied.

For CCOC(=O)[C@]12Cc3cc(Cl)ccc3[C@H]1N(CC(=O)OC)C(=O)c1ccccc12 , is the recorded activity below the cut-off of 90%?
satisfied

For CNC(=O)Oc1cccc(-c2cn3cc(Cl)ccc3n2)c1 , is the recorded activity below the cut-off of 90%?
satisfied

For CCOC(=O)C(=CNc1ccc(C(O)(C(=O)OCC)C(F)(F)F)cc1C)C(=O)OCC (centres undefined) , is the recorded activity below the cut-off of 90%?
satisfied

For Cc1ccc(NC(=O)CN2C(=O)CN=C(c3ccccc3)c3cc(Cl)ccc32)cc1 , is the recorded activity below the cut-off of 90%?
satisfied

For NC(=S)c1cn(C2OC(CO)C(O)C2O)c2ncnc(N)c12 (centres undefined) , is the recorded activity below the cut-off of 90%?
satisfied

For CCOC(=O)[C@]12Cc3c(cc(OC)c(OC)c3OC)[C@H]1N(C1CCCCC1)C(=O)c1ccccc12 , is the recorded activity below the cut-off of 90%?
not satisfied

====

Can you tell me activation (fluorescence interference) for the items I'm about to list?
Assay remarks: Rh110 fluorescence interference by putative Apaf-1 inhibitors, confirmation, artefact control for Apaf-1 inhibitor project, biochemical, 20 µM (AID 504615)
Condition set: quenched caspase reaction, at 20 µM, stronger effect = higher value
This is one part of the list. Activity calls are given as the source filed them.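 Rule for the calls: active = signal rise of 40% or more at 20 µM, treated as a fluorescence artifact; inactive = the rest.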

Entry CNCC(O)c1cc(F)c(OCc2ccccc2)c(OCc2ccccc2)c1F (stereo not given) : reported activation (fluorescence interference) = ?
12.9% (inactive)

Entry CCCCCn1c(=O)c(C(=O)Nc2c(C)n(C)n(-c3ccccc3)c2=O)c(O)c2ccccc21 : reported activation (fluorescence interference) = ?
-2.75% (inactive)

Entry CCOC(=O)c1c(N)n(Cc2ccccc2)c2nc3ccccc3nc12 : reported activation (fluorescence interference) = ?
5.83% (inactive)

Entry CCCCCCCCCCCCn1ccc(=N)cc1 : reported activation (fluorescence interference) = ?
3.55% (inactive)

Entry CC(Cc1ccccc1)NCCC(c1ccccc1)c1ccccc1 (stereo not given) : reported activation (fluorescence interference) = ?
7.45% (inactive)

====

Target: PEG-3 (UniProt Q6IN02)
Sequence (Q6IN02 whole entry, looked up): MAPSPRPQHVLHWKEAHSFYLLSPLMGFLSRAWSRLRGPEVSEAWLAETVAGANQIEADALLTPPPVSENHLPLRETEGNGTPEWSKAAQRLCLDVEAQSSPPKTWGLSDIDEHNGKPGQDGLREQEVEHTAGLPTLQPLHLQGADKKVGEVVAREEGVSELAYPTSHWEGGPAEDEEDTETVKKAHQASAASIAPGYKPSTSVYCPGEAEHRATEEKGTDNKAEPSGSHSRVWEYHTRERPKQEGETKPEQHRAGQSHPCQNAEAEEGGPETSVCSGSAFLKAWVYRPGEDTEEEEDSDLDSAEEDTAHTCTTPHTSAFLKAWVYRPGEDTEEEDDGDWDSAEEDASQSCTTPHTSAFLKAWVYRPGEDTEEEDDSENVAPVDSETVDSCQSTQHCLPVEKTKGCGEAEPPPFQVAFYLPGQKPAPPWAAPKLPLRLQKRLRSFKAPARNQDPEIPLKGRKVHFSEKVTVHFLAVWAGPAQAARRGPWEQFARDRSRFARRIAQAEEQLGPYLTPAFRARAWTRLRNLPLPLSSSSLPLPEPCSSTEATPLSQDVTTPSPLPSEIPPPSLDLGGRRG
Assay remarks: Peg3 promoter luciferase inhibitors, potency, dose response, cell-based, HeLa, CREF/GAPDH counter-screen panel (AID 624167)
Condition set: HeLa PEG-Prom luciferase reporter, overnight, CREF/GAPDH counter-screens; run 1, dose range 1, at 100 µM (top of the series)
Measurement label: inhibition (%)
I only need the number, in %, no unit after it.

Entry c1ccc(-c2cc(-c3ccccc3)[n+](-c3ccccc3)c(-c3ccccc3)c2)cc1 : reported inhibition = ?
98.2

Entry O=[N+]([O-])c1ccc(NC2CCN(Cc3ccccc3)CC2)c2ccncc12 : reported inhibition = ?
102

Entry COc1ccc(CNCCc2c(C)[nH]c3ccc(OC(F)(F)F)cc23)c(OC)c1 : reported inhibition = ?
102

Entry C[C@@H]1C[C@@H]([C@H](O)CC2CC(=O)NC(=O)C2)C(=O)[C@@H](C)C1 : reported inhibition = ?
98

Entry CC1(C)Cc2c(C#N)c(N3CCNCC3)nc(-c3ccco3)c2CS1 : reported inhibition = ?
101

Entry CC1=CC2OC3CC4OC(=O)C=CC=CC(C(C)O)OCC(O)C(C)CC(=O)OCC2(CC1O)C4(C)C31CO1 (centres undefined) : reported inhibition = ?
101

Entry COc1cccc(C2CC3C(=O)C=CC2N3Cc2ccccc2)c1 (centres undefined) : reported inhibition = ?
101

Entry O=[N+]([O-])c1cc(F)c(N2CCCCCC2)cc1N1CCNCC1 : reported inhibition = ?
99.4

Entry CC(=O)OC1CC[C@]2(C#N)[C@H]3CC[C@]4(C)[C@H](C5C=CC(=O)O5)CCC4(O)C3CCC2(O)C1 (some centres undefined) : reported inhibition = ?
98.6

====

Assay remarks: TRAIL sensitizers in caspase-8 expressing neuroblastoma cells, dose response, NB7 cells plus caspase-8, luminescence, panel (AID 652002)
Condition set: NB7 neuroblastoma +caspase-8, no TRAIL, compound-alone cytotoxicity counter-screen, luminescence viability, NB7+Caspase-8, run 1; at 12.5 µM (top of the series)
Measurement label: activity, % sensitization
Kindly format the answer as number then unit.

Entry CCCC1(CCC)C(=O)NC(=NCc2ccccc2)NC1=O : reported activity, % sensitization = ?
-4.21%

Entry CC(C)CCn1c(=O)c(C(=O)Nc2ccccc2S(N)(=O)=O)c(O)c2ccccc21 : reported activity, % sensitization = ?
-27.8%

Entry CCOC(=O)[C@]12Cc3cc4ccccc4cc3[C@H]1N(Cc1ccccc1)C(=O)c1cc(OC)ccc12 : reported activity, % sensitization = ?
7.37%

Entry CCOC(=O)c1cccc(-[n+]2c(-c3ccccc3)cc(-c3ccccc3)cc2-c2ccccc2)c1 : reported activity, % sensitization = ?
9.79%

Entry CCOC(=O)[C@]12Cc3cc4ccccc4cc3[C@H]1N(Cc1ccccc1)C(=O)c1ccccc12 : reported activity, % sensitization = ?
6.91%

====

Assay remarks: inhibitors of PAF-induced NFkB signaling in CF airway cells, dose response, cell-based, uHTS hits, panel, cytotoxicity readout (AID 624344)
Condition set: CF bronchial epithelial cells, PAF-induced NFkB reporter inhibition, with PAF, run 2; at 79 µM (top of the series)
Can you tell me inhibition for the items I'm about to list?
I only need the number, in %, no unit after it.

Entry N#Cc1c(Br)n(C2OC(CO)C(O)C2O)c2ncnc(N)c12 (stereo not given) : reported inhibition = ?
107

Entry COc1cc(C2c3cc4c(cc3CC3COC(=O)C32)OCO4)cc(OC)c1O (stereo not given) : reported inhibition = ?
-1.25

Entry N#CC1c2ccccc2-n2nncc2CN1Cc1cc(Cl)cc(Cl)c1 (stereo not given) : reported inhibition = ?
95.5

Entry COc1ccc(C(c2nnnn2-c2ccc(OC)cc2)N2CCC(n3c(=O)[nH]c4ccccc43)CC2)cc1 (stereo not given) : reported inhibition = ?
103

Entry CC(=O)OC1(C)CC(C)C(=O)C(C(O)CC2CC(=O)NC(=O)C2)C1 (stereo not given) : reported inhibition = ?
108

Entry COc1ccc2c(c1)[nH]c1c(C)nccc12 : reported inhibition = ?
97.6

Entry C=CC[C@@H](CC/C=C/C=C/CC/C=C\[C@@H]1CSC([C@@H]2C[C@@H]2C)=N1)OC : reported inhibition = ?
64.9

Entry COc1ccc(Oc2cc(NC(=O)c3nn(C)cc3[N+](=O)[O-])cc([N+](=O)[O-])c2)cc1 : reported inhibition = ?
101

Entry C=C1C(C)C2C(Cc3ccccc3)NC(=O)C23OC(=O)/C=C/C(O)CCCC(C)C/C=C/C3C1O (stereo not given) : reported inhibition = ?
103

Entry CC(=O)c1c(C)n(C2CCCCC2)c2ccc(O)cc12 : reported inhibition = ?
102

====

Assay remarks: caspase-8 TRAIL sensitization, hit retest, confirmation, cell-based, NB7+caspase-8, with/without TRAIL, luminescence panel (AID 651596)
Condition set: NB7 neuroblastoma + caspase-8, without TRAIL, luminescence viability, without TRAIL, mean of runs, at 10 µM
Entries whose activity is below 80% take true; entries at or above 80% take false.

For CN(C)C(=O)Oc1ccc(-c2cn3cc(Cl)ccc3n2)cc1 , is the recorded activity below the cut-off of 80%?
false

For O=c1[nH]c2ccccc2n1C1CCN(C(c2cc3ccccc3o2)c2nnnn2-c2ccc3c(c2)OCCO3)CC1 (centres undefined) , is the recorded activity below the cut-off of 80%?
false

For CCOC(=O)[C@]12Cc3cc(Cl)ccc3[C@H]1N(CC(=O)OC)C(=O)c1ccccc12 , is the recorded activity below the cut-off of 80%?
true

For CCOc1ccc(-c2cc(C)[n+](CCN(CC)CC)c(-c3ccc(OCC)cc3)c2)cc1 , is the recorded activity below the cut-off of 80%?
true

For ClCCN(CCCl)c1ccc(-n2cnc3c(Cl)ncnc32)cc1 , is the recorded activity below the cut-off of 80%?
false

For C[C@]12CC[C@H]3C(CCC4(O)CC(O)CC[C@]34C=O)C1=CC[C@H]2c1ccc(=O)oc1 (some centres undefined) , is the recorded activity below the cut-off of 80%?
true

For CCOC(=O)[C@]12Cc3ccc(C)cc3[C@H]1N(C1CCCCC1)C(=O)c1cc(OC)ccc12 , is the recorded activity below the cut-off of 80%?
false

For CCOC(=O)[C@]12Cc3ccccc3[C@H]1N(C1CCCCC1)C(=O)c1cc(OC)ccc12 , is the recorded activity below the cut-off of 80%?
false

For O=c1[nH]c2ccccc2n1C1CCN(C(c2cc3ccccc3o2)c2nnnn2Cc2ccccc2)CC1 (centres undefined) , is the recorded activity below the cut-off of 80%?
true
